src = paper PMC3590988

The following binders are listed with their measured pKd values.
Measurement Target: T1, ScWpl1^259–647 (Wapl domain of Saccharomyces cerevisiae Wpl1), wild type (S. cerevisiae, UniProt Q99359 259-647)
T1 sequence (looked up): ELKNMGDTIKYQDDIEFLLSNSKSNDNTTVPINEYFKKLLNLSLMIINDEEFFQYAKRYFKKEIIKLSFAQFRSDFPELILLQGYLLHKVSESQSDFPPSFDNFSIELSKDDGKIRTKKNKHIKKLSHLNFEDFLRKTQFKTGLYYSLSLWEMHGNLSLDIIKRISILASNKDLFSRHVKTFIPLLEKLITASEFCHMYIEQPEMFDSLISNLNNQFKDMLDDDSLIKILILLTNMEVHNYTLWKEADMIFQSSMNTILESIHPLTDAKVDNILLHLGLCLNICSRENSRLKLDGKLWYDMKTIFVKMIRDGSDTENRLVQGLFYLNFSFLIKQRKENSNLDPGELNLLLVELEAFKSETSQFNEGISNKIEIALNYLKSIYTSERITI
Experiment Summary: BLI
Note: pKd values are expressed as the negative base-10 logarithm of concentration in M.

Below, 2 binders whose answers are already recorded.
Binder	pKd
GST-tagged ScSmc3^AH L163A L166A D168A (domain or fragment, S. cerevisiae) MYIKRVIIKGFKTYRNETIIDNFSPHQNVIIGSNGSGKSNFFAAIRFVLSDDYSNLKREERQGLIHQGSGGSVMSASVEIVFHDPDHSMILPSGVLSRGDDEVTIRRTVGLKKDDYQLNDRNVTKGDIVRMLETAGFSMNNPYNIVPQGKIVALTNAKDKERAQLAEAVVGAKSFEVKLKASLKKMEETESGGSGGKVSENFEAVFERLVPRGTAKLIIHRKNDNANDHDESIDVDMDAESNESQNGKDSEIMYTGVSISVSFNSKQNEQLHVEQLSGGQKTVCAIALILAIQMVDPASFYLFDEIDAALDKQYRTAVATLLKELSKNAQFICTTFRTDMLQVADKFFRVKYENKISTVIEVNREEAIGFIRGSNKFAEV	6.98
GST-tagged ScSmc3^AH K112N K113N (domain or fragment, S. cerevisiae) MYIKRVIIKGFKTYRNETIIDNFSPHQNVIIGSNGSGKSNFFAAIRFVLSDDYSNLKREERQGLIHQGSGGSVMSASVEIVFHDPDHSMILPSGVLSRGDDEVTIRRTVGLNNDDYQLNDRNVTKGDIVRMLETAGFSMNNPYNIVPQGKIVALTNAKDKERLQLLEDVVGAKSFEVKLKASLKKMEETESGGSGGKVSENFEAVFERLVPRGTAKLIIHRKNDNANDHDESIDVDMDAESNESQNGKDSEIMYTGVSISVSFNSKQNEQLHVEQLSGGQKTVCAIALILAIQMVDPASFYLFDEIDAALDKQYRTAVATLLKELSKNAQFICTTFRTDMLQVADKFFRVKYENKISTVIEVNREEAIGFIRGSNKFAEV	7.06

Exercise: Fill in reported pKd for this entry: GST-tagged ScSmc3^AH L163D L166D (domain or fragment, S. cerevisiae) MYIKRVIIKGFKTYRNETIIDNFSPHQNVIIGSNGSGKSNFFAAIRFVLSDDYSNLKREERQGLIHQGSGGSVMSASVEIVFHDPDHSMILPSGVLSRGDDEVTIRRTVGLKKDDYQLNDRNVTKGDIVRMLETAGFSMNNPYNIVPQGKIVALTNAKDKERDQLDEDVVGAKSFEVKLKASLKKMEETESGGSGGKVSENFEAVFERLVPRGTAKLIIHRKNDNANDHDESIDVDMDAESNESQNGKDSEIMYTGVSISVSFNSKQNEQLHVEQLSGGQKTVCAIALILAIQMVDPASFYLFDEIDAALDKQYRTAVATLLKELSKNAQFICTTFRTDMLQVADKFFRVKYENKISTVIEVNREEAIGFIRGSNKFAEV
Key: 6.99
